Molecular target: Human IP6K1 (Homo sapiens)
Construct: GST (N, cleaved yes); made in house; host or cells: C43 E. coli, pGEX-6P-2
Sequence (Q92551 whole entry): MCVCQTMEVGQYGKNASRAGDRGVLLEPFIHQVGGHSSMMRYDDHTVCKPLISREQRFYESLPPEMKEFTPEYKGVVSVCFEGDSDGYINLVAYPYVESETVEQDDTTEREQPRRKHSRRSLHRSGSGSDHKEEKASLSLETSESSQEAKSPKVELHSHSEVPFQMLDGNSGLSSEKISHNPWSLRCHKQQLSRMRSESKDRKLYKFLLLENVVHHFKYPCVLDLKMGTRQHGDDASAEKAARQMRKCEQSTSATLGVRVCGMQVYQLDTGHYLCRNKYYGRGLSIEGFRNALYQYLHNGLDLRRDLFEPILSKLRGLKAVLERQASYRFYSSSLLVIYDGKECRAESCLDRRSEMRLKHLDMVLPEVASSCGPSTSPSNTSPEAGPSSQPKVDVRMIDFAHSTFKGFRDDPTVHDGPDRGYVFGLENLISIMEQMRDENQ
Experiment: IP6K1 inhibition dose-response assay (ADP-Glo Max)
Type: biochemical
Details: 250μM ATP, 400μM IP6, 60nM IP6K1, 30 minutes, 37°C; read-out: IC50 IP6K1
measured-property: pIC50
// scale note: pIC50 = -log10(conc_M); give the bare number

Answer with the recorded pIC50 for the compound listed here: O=[N+]([O-])c1ccc(CNc2nc(NCc3cccc(C(F)(F)F)c3)nc3nc[nH]c23)cc1 [TNP]
4.80

====

Target: Human IP6K1 (Homo sapiens)
Construct: GST (N, cleaved yes); made in house; host or cells: C43 E. coli, pGEX-6P-2
Test: IP6K1 inhibition dose-response assay (ADP-Glo Max)
Type: biochemical
Conditions: 400μM IP6, 300μM ATP, 60nM IP6K1, 15 minutes; read-out: IC50 IP6K1
measured-property: IC50 (µM)
Give the value in µM but do not write µM after it.

Identify measured IC50 associated with O=[N+]([O-])c1ccc(CNc2nc(NCc3cccc(C(F)(F)F)c3)nc3nc[nH]c23)cc1
9.5

# credit: paper PMC5706701
